test: physchem; settings: pH 5.8, Solubility Conc.
Positions of bridges follow the written chain, without caps; N, C: chain ends. Non-standard residues stand in square brackets, D forms with d. Residues, ends and D or L forms follow the SMILES beside them. Groups on a side chain read outwards from the residue. *: point of attachment. Lys(CH2CO2H)2 = N[C@@H](CCCCN(CC(=O)O)CC(=O)O)C(=O)O; C18 diacid = O=C(O)CCCCCCCCCCCCCCCCC(=O)*; C16 diacid = O=C(O)CCCCCCCCCCCCCCC(=O)*; Orn = NCCC[C@H](N)C(=O)O; AEEA = NCCOCCOCC(=O)O
readout-name: solubility (µM)
Numbers only; they are read as µM.

compound	solubility (µM)
CC(=O)N[C@H]1CSSC[C@@H](C(=O)N2CCC[C@H]2C(=O)N2CCC[C@H]2C(=O)N[C@@H](CCCCN)C(=O)N[C@@H](CCC(=O)O)C(=O)N[C@@H](CCC(=O)O)C(=O)N[C@@H](CCCCNC(=O)COCCOCCNC(=O)CCCCCCCCCCCCCCC(=O)O)C(N)=O)NC(=O)CNC(=O)[C@H](Cc2c[nH]c3ccccc23)NC(=O)[C@H](CCCNC(=N)N)NC(=O)[C@@H](Cc2ccccc2)NC(=O)[C@H](Cc2c[nH]cn2)NC(=O)[C@H](CCC(=O)O)NC1=O [Example 68] (Ac-CEH[dF]RWGCPPKEEK([AEEA-C16 diacid])-NH2; disulfide 1-8)	102
CC(=O)N[C@H]1CCCNC(=O)C[C@@H](C(=O)N2CCC[C@H]2C(=O)N2CCC[C@H]2C(=O)N[C@@H](CCCNC(=N)N)C(=O)N[C@@H](CCC(=O)O)C(=O)N[C@@H](CCCCN(CC(=O)O)CC(=O)O)C(=O)N[C@@H](CCCCNC(=O)COCCOCCNC(=O)CCCCCCCCCCCCCCC(=O)O)C(N)=O)NC(=O)[C@H](Cc2c[nH]c3ccccc23)NC(=O)[C@H](CCCNC(=N)N)NC(=O)[C@@H](Cc2ccccc2)NC(=O)[C@H](Cc2c[nH]cn2)NC1=O [Example 42] (Ac-[Orn]H[dF]RWDPPRE[Lys(CH2CO2H)2]K([AEEA-C16 diacid])-NH2; lactam 1-6)	240

--- query ---
Need solubility of CC(=O)N[C@H]1CCC(=O)NCCC[C@@H](C(=O)N2CCC[C@H]2C(=O)N2CCC[C@H]2C(=O)N[C@@H](CC(=O)O)C(=O)N[C@@H](CCCCN(CC(=O)O)CC(=O)O)C(=O)N[C@@H](CCCCNC(=O)COCCOCCNC(=O)CCCCCCCCCCCCCCCCC(=O)O)C(N)=O)NC(=O)[C@H](Cc2c[nH]c3ccccc23)NC(=O)[C@H](CCCNC(=N)N)NC(=O)[C@@H](Cc2ccccc2)NC(=O)[C@H](Cc2c[nH]cn2)NC1=O [Example 26] (Ac-EH[dF]RW[Orn]PPD[Lys(CH2CO2H)2]K([AEEA-C18 diacid])-NH2; lactam 1-6) , thanks.
325

====

Collected solubility values appear next to each entry.
experiment: physchem; details: pH 7.8, Solubility Conc.
Positions of bridges follow the written chain, without caps; N, C: chain ends. Non-standard residues stand in square brackets, D forms with d. Residues, ends and D or L forms follow the SMILES beside them. Groups on a side chain read outwards from the residue. *: point of attachment. Lys(CH2CO2H)2 = N[C@@H](CCCCN(CC(=O)O)CC(=O)O)C(=O)O; C17 diacid = O=C(O)CCCCCCCCCCCCCCCC(=O)*; C16 diacid = O=C(O)CCCCCCCCCCCCCCC(=O)*; hCys = N[C@@H](CCS)C(=O)O; Orn = NCCC[C@H](N)C(=O)O; AEEA = NCCOCCOCC(=O)O
Numbers only; they are read as µM.

Below are worked cases with known answers.
compound	data-value
CC(=O)N[C@H]1CCSSC[C@@H](C(=O)N2CCC[C@H]2C(=O)N2CCC[C@H]2C(=O)N[C@@H](CO)C(=O)N[C@@H](CCC(=O)O)C(=O)N[C@@H](CCCCN(CC(=O)O)CC(=O)O)C(=O)N[C@@H](CCCCNC(=O)COCCOCCNC(=O)CCCCCCCCCCCCCCC(=O)O)C(N)=O)NC(=O)[C@H](Cc2c[nH]c3ccccc23)NC(=O)[C@H](CCCNC(=N)N)NC(=O)[C@@H](Cc2ccccc2)NC(=O)[C@H](Cc2c[nH]cn2)NC1=O [Example 70] (Ac-[hCys]H[dF]RWCPPSE[Lys(CH2CO2H)2]K([AEEA-C16 diacid])-NH2; disulfide 1-6)	463
CC(=O)N[C@H]1CCCNC(=O)C[C@@H](C(=O)N2CCC[C@H]2C(=O)N2CCC[C@H]2C(=O)N[C@@H](Cc2c[nH]cn2)C(=O)N[C@@H](CCC(=O)O)C(=O)N[C@@H](CCCCN(CC(=O)O)CC(=O)O)C(=O)N[C@@H](CCCCNC(=O)COCCOCCNC(=O)CCCCCCCCCCCCCCC(=O)O)C(N)=O)NC(=O)[C@H](Cc2c[nH]c3ccccc23)NC(=O)[C@H](CCCNC(=N)N)NC(=O)[C@@H](Cc2ccccc2)NC(=O)[C@H](Cc2c[nH]cn2)NC1=O [Example 51] (Ac-[Orn]H[dF]RWDPPHE[Lys(CH2CO2H)2]K([AEEA-C16 diacid])-NH2; lactam 1-6)	457

--- query ---
Need solubility of CC(=O)N[C@H]1CCCCNC(=O)C[C@@H](C(=O)N2CCC[C@H]2C(=O)N[C@@H](CO)C(=O)N[C@@H](Cc2c[nH]cn2)C(=O)N[C@@H](CCC(=O)O)C(=O)N[C@@H](CCCCN(CC(=O)O)CC(=O)O)C(=O)N[C@@H](CCCCNC(=O)COCCOCCNC(=O)CCCCCCCCCCCCCCCC(=O)O)C(N)=O)NC(=O)[C@H](Cc2c[nH]c3ccccc23)NC(=O)[C@H](CCCNC(=N)N)NC(=O)[C@@H](Cc2ccccc2)NC(=O)[C@H](Cc2c[nH]cn2)NC1=O [Example 49] (Ac-KH[dF]RWDPSHE[Lys(CH2CO2H)2]K([AEEA-C17 diacid])-NH2; lactam 1-6) , thanks.
456
